Measured K values are reported for all entries that follow.
System: Salmonidae
Protocol Details: Binding affinity to salmon testis duplex genomic DNA by fluorescence titration method

{"columns": ["Smiles", "K"],
 "data": [
  ["CC(=O)Nc1ccc2c3cccc4c3c([n+](C)c2c1)-c1ccccc1N4C.[I-]", "0.63 10^5/M"],
  ["CN1c2ccccc2-c2c3c1cccc3c1ccc(NC(=O)C(C)(C)C)cc1[n+]2C.[I-]", "1.2 10^5/M"],
  ["COC(=O)CCCCC(=O)Nc1ccc2c3cccc4c3c([n+](C)c2c1)-c1ccccc1N4C.[I-]", "0.68 10^5/M"],
  ["COS(=O)(=O)[O-].Cc1ccc2c(c1)-c1c3c(cc(C)cc3c3cc(C)ccc3[n+]1C)N2C", "2.4 10^5/M"],
  ["CN1c2ccccc2-c2c3c1cccc3c1cc(/C=C/C(=O)N3CCOCC3)ccc1[n+]2C", "0.31 10^5/M"],
  ["CC(=O)OCCCc1cc2c3c([n+](C)c4ccc(CCCOC(C)=O)cc4c3c1)-c1ccccc1N2C", "0.94 10^5/M"],
  ["CN1c2ccccc2-c2c3c1cccc3c1cc(Cl)ccc1[n+]2C.[I-]", "1.1 10^5/M"],
  ["CN1c2ccccc2-c2c3c1cccc3c1ccccc1[n+]2C.[I-]", "0.71 10^5/M"],
  ["CN1c2ccccc2-c2c3c1cccc3c1ccc(NC(=O)C(F)(F)F)cc1[n+]2C.[I-]", "0.7 10^5/M"],
  ["CN1c2ccccc2-c2c3c1cccc3c1ccc(N(C)S(=O)(=O)c3ccc(F)cc3)cc1[n+]2C.[I-]", "0.83 10^5/M"],
  ["Cc1cc2c3c([n+](C)c4ccc(F)cc4c3c1)-c1cc(F)ccc1N2C", "0.56 10^5/M"],
  ["CC(=O)Nc1ccc2c(c1)c1cccc3c1c([n+]2C)-c1ccccc1N3C.[I-]", "0.53 10^5/M"],
  ["COc1cc2c3c([n+](C)c4ccc(Cl)cc4c3c1)-c1ccccc1N2C.[I-]", "2.2 10^5/M"]
]}

* * *

Protocol Details: Binding affinity to duplex DNA d[(CG)8] by surface plasmon resonance method

{"columns": ["Smiles", "K"],
 "data": [
  ["CN1c2ccccc2-c2c3c1cccc3c1cc(/C=C/C(=O)N3CCOCC3)ccc1[n+]2C", "25 10^5/M"],
  ["Cc1cc2c3c([n+](C)c4ccc(F)cc4c3c1)-c1cc(F)ccc1N2C", "3.4 10^5/M"],
  ["CN1c2ccccc2-c2c3c1cccc3c1ccc(NC(=O)C(F)(F)F)cc1[n+]2C.[I-]", "3.8 10^5/M"],
  ["CC(=O)Nc1ccc2c(c1)c1cccc3c1c([n+]2C)-c1ccccc1N3C.[I-]", "4.4 10^5/M"],
  ["CN1c2ccccc2-c2c3c1cccc3c1ccc(N(C)S(=O)(=O)c3ccc(F)cc3)cc1[n+]2C.[I-]", "17 10^5/M"],
  ["CC(=O)OCCCc1cc2c3c([n+](C)c4ccc(CCCOC(C)=O)cc4c3c1)-c1ccccc1N2C", "1.7 10^5/M"],
  ["COS(=O)(=O)[O-].Cc1ccc2c(c1)-c1c3c(cc(C)cc3c3cc(C)ccc3[n+]1C)N2C", "5.4 10^5/M"],
  ["CC(=O)Nc1ccc2c3cccc4c3c([n+](C)c2c1)-c1ccccc1N4C.[I-]", "3.8 10^5/M"]
]}

* * *

Measured Ratio values are reported for all entries that follow.
Protocol Details: Ratio of binding constant K for G-quadruplex human telomeric sequence d[AG3(TTAGGG3) to binding constant K for salmon testis duplex genomic DNA by fluorescence titration method
Quantity Name: Ratio

{"columns": ["Smiles", "Meas Value"],
 "data": [
  ["COc1cc2c3c([n+](C)c4ccc(Cl)cc4c3c1)-c1ccccc1N2C.[I-]", 2.9],
  ["CN1c2ccccc2-c2c3c1cccc3c1ccccc1[n+]2C.[I-]", 1.3],
  ["CN1c2ccccc2-c2c3c1cccc3c1cc(/C=C/C(=O)N3CCOCC3)ccc1[n+]2C", 10.3],
  ["Cc1cc2c3c([n+](C)c4ccc(F)cc4c3c1)-c1cc(F)ccc1N2C", 4.8],
  ["CC(=O)Nc1ccc2c(c1)c1cccc3c1c([n+]2C)-c1ccccc1N3C.[I-]", 5.8]
]}

* * *

Species: Homo sapiens
Protocol Details: Binding affinity to quadruplex human telomeric sequence d[AG3(TTAGGG3) by surface plasmon resonance method
Quantity Name: K

{"columns": ["Smiles", "Meas Value"],
 "data": [
  ["CN1c2ccccc2-c2c3c1cccc3c1ccc(N(C)S(=O)(=O)c3ccc(F)cc3)cc1[n+]2C.[I-]", "48 10^5/M"],
  ["CN1c2ccccc2-c2c3c1cccc3c1ccc(NC(=O)C(F)(F)F)cc1[n+]2C.[I-]", "130 10^5/M"],
  ["CC(=O)Nc1ccc2c3cccc4c3c([n+](C)c2c1)-c1ccccc1N4C.[I-]", "240 10^5/M"],
  ["CN1c2ccccc2-c2c3c1cccc3c1cc(/C=C/C(=O)N3CCOCC3)ccc1[n+]2C", "71 10^5/M"],
  ["Cc1cc2c3c([n+](C)c4ccc(F)cc4c3c1)-c1cc(F)ccc1N2C", "110 10^5/M"],
  ["CC(=O)Nc1ccc2c(c1)c1cccc3c1c([n+]2C)-c1ccccc1N3C.[I-]", "250 10^5/M"],
  ["CC(=O)OCCCc1cc2c3c([n+](C)c4ccc(CCCOC(C)=O)cc4c3c1)-c1ccccc1N2C", "2.4 10^5/M"],
  ["COS(=O)(=O)[O-].Cc1ccc2c(c1)-c1c3c(cc(C)cc3c3cc(C)ccc3[n+]1C)N2C", "74 10^5/M"]
]}

* * *

Protocol Details: Ratio of binding constant K for G-quadruplex human telomeric sequence d[AG3(TTAGGG3) to binding constant K for duplex DNA d[(CG)8] by surface plasmon resonance method

{"columns": ["Smiles", "Ratio"],
 "data": [
  ["CN1c2ccccc2-c2c3c1cccc3c1ccc(NC(=O)C(F)(F)F)cc1[n+]2C.[I-]", 34.2],
  ["CC(=O)Nc1ccc2c3cccc4c3c([n+](C)c2c1)-c1ccccc1N4C.[I-]", 63],
  ["CN1c2ccccc2-c2c3c1cccc3c1cc(/C=C/C(=O)N3CCOCC3)ccc1[n+]2C", 2.8],
  ["CC(=O)OCCCc1cc2c3c([n+](C)c4ccc(CCCOC(C)=O)cc4c3c1)-c1ccccc1N2C", 1.4],
  ["COS(=O)(=O)[O-].Cc1ccc2c(c1)-c1c3c(cc(C)cc3c3cc(C)ccc3[n+]1C)N2C", 13.7],
  ["CC(=O)Nc1ccc2c(c1)c1cccc3c1c([n+]2C)-c1ccccc1N3C.[I-]", 57],
  ["CN1c2ccccc2-c2c3c1cccc3c1ccc(N(C)S(=O)(=O)c3ccc(F)cc3)cc1[n+]2C.[I-]", 2.8],
  ["Cc1cc2c3c([n+](C)c4ccc(F)cc4c3c1)-c1cc(F)ccc1N2C", 32.3]
]}

* * *

Species on record: Homo sapiens
Protocol Details: Stabilization of G-quadruplex in human cmyc Pu27 DNA sequence assessed as decrease in full length product at less than 1 uM by Taq polymerase arrest assay relative to G-quadruplex arrest
Design: scale not given: the % may be the effect or the level left
Measured Activity values are reported for all entries that follow.

{"columns": ["Smiles", "Activity [%]"],
 "data": [
  ["Cc1cc2c3c([n+](C)c4ccc(F)cc4c3c1)-c1cc(F)ccc1N2C", 50],
  ["CC(=O)Nc1ccc2c3cccc4c3c([n+](C)c2c1)-c1ccccc1N4C.[I-]", 50],
  ["COS(=O)(=O)[O-].Cc1ccc2c(c1)-c1c3c(cc(C)cc3c3cc(C)ccc3[n+]1C)N2C", 50],
  ["CN1c2ccccc2-c2c3c1cccc3c1cc(/C=C/C(=O)N3CCOCC3)ccc1[n+]2C", 50]
]}

* * *

Protocol Details: Growth inhibition of human NCI60 cells after 2 days
Assay type: functional
Assay Conditions: Homo sapiens, NCI60, 48 h
Decision: GI50 beneath 3 µM gives Met; GI50 meeting or exceeding 3 µM gives Not met.

{"columns": ["Smiles", "Assigned Class"],
 "data": [
  ["COc1cc2c3c([n+](C)c4ccccc4c3c1)-c1ccc(Cl)cc1N2C", "Met"],
  ["CN1c2ccccc2-c2c3c1cccc3c1cc(/C=C/C(=O)N3CCOCC3)ccc1[n+]2C", "Not met"],
  ["CN1c2ccccc2-c2cccc3nc4ccccc4c1c23", "Met"],
  ["CC(=O)Nc1ccc2c(c1)c1cccc3c1c([n+]2C)-c1ccccc1N3C.[I-]", "Not met"],
  ["CN1c2ccccc2-c2c3c1cc(/C=C/C(=O)N1CCOCC1)cc3c1cc(Cl)ccc1[n+]2C", "Not met"],
  ["CCCCCCCCCCCC(=O)Nc1ccc2c3cccc4c3c([n+](C)c2c1)-c1ccccc1N4C", "Met"],
  ["c1cc2c3c(c1)-c1cccc4nc5ccccc5c(c14)N3CC2", "Met"],
  ["CN1c2ccccc2-c2c3c1cccc3c1ccc(N)cc1[n+]2C.[I-]", "Not met"],
  ["CN1c2ccccc2-c2c3c1cccc3c1ccc(NC(=O)C(C)(C)C)cc1[n+]2C.[I-]", "Not met"],
  ["COc1cc2c3c([n+](C)c4ccc(Cl)cc4c3c1)-c1ccccc1N2C.[I-]", "Met"],
  ["COS(=O)(=O)[O-].Cc1cc2c3c([n+](C)c4ccccc4c3c1)-c1ccccc1N2C", "Met"],
  ["CN(C)c1ccc2c3cccc4c3c([n+](C)c2c1)-c1ccccc1N4C", "Met"],
  ["CN1c2ccccc2-c2c3c1cccc3c1ccc(N(C)S(=O)(=O)c3ccc(F)cc3)cc1[n+]2C.[I-]", "Not met"],
  ["CN1c2ccccc2-c2c3c1cccc3c1ccccc1[n+]2C.[I-]", "Not met"],
  ["COC(=O)CCCCC(=O)Nc1ccc2c3cccc4c3c([n+](C)c2c1)-c1ccccc1N4C.[I-]", "Not met"],
  ["CN1c2ccccc2-c2c3c1cccc3c1ccc(NC(=O)c3ccccc3)cc1[n+]2C", "Not met"],
  ["CN1c2ccccc2-c2c3c1cccc3c1cc(Cl)ccc1[n+]2C.[I-]", "Not met"],
  ["Nc1ccc2c(c1)Nc1c3ccccc3nc3cccc-2c13", "Met"],
  ["COC(=O)/C=C/c1ccc2c(c1)N(C)c1cc(OC)cc3c1c-2[n+](C)c1ccccc31", "Not met"],
  ["CNc1ccc2c3cccc4c3c([n+](C)c2c1)-c1ccccc1N4C", "Met"]
]}
